target-or-test-system: Delta-type opioid receptor (Homo sapiens)
Sequence (P41143 whole entry): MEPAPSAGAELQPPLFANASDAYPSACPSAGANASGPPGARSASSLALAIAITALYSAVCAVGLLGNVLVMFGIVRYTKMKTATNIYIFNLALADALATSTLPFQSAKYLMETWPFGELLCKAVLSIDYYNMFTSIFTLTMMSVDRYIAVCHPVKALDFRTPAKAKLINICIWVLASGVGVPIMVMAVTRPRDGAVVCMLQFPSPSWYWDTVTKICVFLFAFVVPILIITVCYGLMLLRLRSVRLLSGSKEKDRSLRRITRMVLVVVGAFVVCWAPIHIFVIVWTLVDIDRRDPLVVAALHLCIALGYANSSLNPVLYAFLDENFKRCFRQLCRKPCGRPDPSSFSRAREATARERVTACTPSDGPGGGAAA
protocol-details: Displacement of [125I]deltorphin 2 from human recombinant delta opioid receptor expressed in HEK293 cells
experimental-readout: IC50 (µM)

Solved cases below.
C[C@H]1C[C@H](O)CC2=C1C(=O)[C@@H]1[C@@H](CCN3CCC[C@@H]13)O2 [GRANDISINE C]    14.6
C[C@H]1CC=CC(=O)[C@@H]1C(=O)C1=CCCN2CCC[C@@H]12 [GRANDISINE D]    1.65

P. C[C@H]1CC=CC2=C1C(=O)[C@@H]1[C@@H](CCN3CCC[C@@H]13)O2
Q. C[C@H]1C[C@H](N)CC2=C1C(=O)[C@@H]1[C@@H](CCN3CCC[C@@H]13)O2 [GRANDISINE F]
R. COC(=O)C[C@@H]1C[C@H](C)CC(C2=CCCN3CCCC23)=N1 (stereo not given in full) [GRANDISINE G]
Descending sort on IC50 required. Give the labels in the order specified.
R, P, Q
(R: 75.4 µM, P: 9.9 µM, Q: 1.55 µM)

The reported measurements were obtained from ChEMBL document CHEMBL1158055.
